Reference source for all entries: PubChem BioAssay (NCATS)

assay: Quantitative highthroughput screen to assess conditional lethalithy of SEM cells grown in Human Plasma-Like Medium with dialyzed fetal bovine serum (HPLM+ds) (AID 1963882); conditions: SEM B-ALL cells in HPLM+ds, CellTiter-Glo viability, 48 h; series mostly up to 45.8 µM; further: nearly all actives have a fitted effect of over 35% in size
Records with an inconclusive call do not appear. The source made the active and inactive calls. The call rests on the fitted dose curve; in most records, active means well fitted cell-killing curve with a large enough effect; inconclusive means small, poorly fitted or top-dose-only effect, or effect the other way; inactive means no such curve, though single readings can be large or run the other way.
Use one of these outcomes when replying: class 1 for active, class 0 for inactive

                                   compound  assignedclass
0  CO[C@@H]1[C@H](N(C)C(=O)c2ccccc2)C[C@H]2O[C@]1(C)n1c3ccccc3c3c4c(c5c6ccccc6n2c5c31)C(=O)NC4        class 1
1             Oc1ccc(C2=Cc3ccc(O)cc3OC2)cc1        class 1
2  COC(=O)N[C@H](C(=O)N[C@@H](Cc1ccccc1)[C@@H](O)CN(Cc1ccc(-c2ccccn2)cc1)NC(=O)[C@@H](NC(=O)OC)C(C)(C)C)C(C)(C)C        class 0
3  CC(=O)Nc1cccc(-n2c(=O)n(C3CC3)c(=O)c3c(Nc4ccc(I)cc4F)n(C)c(=O)c(C)c32)c1        class 1
4      N#Cc1ccc(C(c2ccc(C#N)cc2)n2cncn2)cc1        class 0
5  COc1ccc(-c2cc3c(C)nc(N)nc3n(C3CCC(OCCO)CC3)c2=O)cn1 (configuration not stated)        class 1

Below: the item to evaluate.
Q: Each compound tested received a call. Report the one for O=c1cc(-c2cccc3c2Sc2ccccc2S3)oc(N2CCOCC2)c1 .
Ans: class 0
